ASSAY PROCEDURE: HPLC capacity factor (k')
Assay type: ADME
Label Yes when k' is at or above 3; anything below gets No.

Given OC[C@H]1O[C@@H](n2cnc3c(NCCc4ccccc4)ncnc32)[C@H](O)[C@@H]1O , state whether its k' is at least 3.
No

Quick check, k' >= 3? CCCNc1ncnc2c1ncn2C1O[C@H](CO)[C@@H](O)[C@H]1O (some centres undefined)
No

Is it the case that CC(C)(C)CCNc1ncnc2c1ncn2C1O[C@H](CO)[C@@H](O)[C@H]1O (some centres undefined) has k' reaching or exceeding 3?
Yes

Is the recorded value of k' equal to or greater than 3 for this compound? CC[C@@H](CO)Nc1ncnc2c1ncn2[C@@H]1O[C@H](CO)[C@@H](O)[C@H]1O
No

Identify whether the reported k' of the following compound is 3 or greater: OC[C@H]1O[C@@H](n2cnc3c(NC4CC5CCC4C5)ncnc32)[C@H](O)[C@@H]1O (stereo in doubt; 58)
No

k' >= 3 for CCCC(CCC)Nc1ncnc2c1ncn2C1O[C@H](CO)[C@@H](O)[C@H]1O (some centres undefined) ?
Yes

Test whether the compound OC[C@H]1OC(n2cnc3c(NCC4CC4)ncnc32)[C@H](O)[C@@H]1O (some centres undefined) records k' of 3 or higher.
No

I'd appreciate it if you could say whether CC[C@H](CO)Nc1ncnc2c1ncn2[C@@H]1O[C@H](CO)[C@@H](O)[C@H]1O has k' at least equal to 3.
No

State whether the measured k' reaches 3, counting equality as reaching it, for CC(C)(Nc1ncnc2c1ncn2C1O[C@H](CO)[C@@H](O)[C@H]1O)c1ccccc1 (some centres undefined)
Yes

Recorded values, source ChEMBL document CHEMBL1123137.
